Tested on: Malme-3M
assay name: NCI tumour cell line growth inhibition, 48 h
The source made the active and inactive calls. Cut-off read from the data, not from the text of the source: active = GI50 up to about 1.1 µM and inactive = higher.
Outcome (select one): active, inactive

Before answering, review these 10 worked examples.
{"compound": "Cc1cc(/N=C2\\C=C(Nc3cc(C)on3)C(=O)c3ccccc32)no1", "group label": "inactive"}
{"compound": "CCN(c1ccc(Br)cc1)c1c(Br)c(=O)nc2ccccn12", "group label": "inactive"}
{"compound": "CCNc1cc2c3c(c1)CCN3CCC2", "group label": "inactive"}
{"compound": "O=C(OCC(OC(=O)c1ccccc1)C1CC(C2(O)CCCCC2)C(=O)O1)c1ccccc1 (configuration not stated)", "group label": "inactive"}
{"compound": "Cc1cccc(C(C)(C)C)c1NC(=O)CC1C(=O)Nc2ccccc2S1(=O)=O (configuration not stated)", "group label": "inactive"}
{"compound": "COc1ccc(/C=C(\\C#N)c2ccccn2)cc1OC", "group label": "inactive"}
{"compound": "O=C1c2ccsc2-c2cccc3cccc1c23.O=C1c2sccc2-c2cccc3cccc1c23", "group label": "active"}
{"compound": "c1cc(-c2cn3c(n2)SCC3)ccn1", "group label": "inactive"}
{"compound": "O=C(c1cccs1)N1CCc2ccccc2C1", "group label": "inactive"}
{"compound": "CCOC(=O)NC(OCCN(C)C)(C(F)(F)F)C(F)(F)F", "group label": "inactive"}

What classification did "S=c1[nH]c(=S)c2nnn(-c3ccccc3)c2[nH]1" end up with in this test? inactive

What classification did CC(C)=CCC[C@]1(C)CC[C@]2(C)C3CCC(=C(C)C)[C@@H](CCCO)[C@]3(C)CC[C@@]2(C)C1 (some centres not stated) end up with in this test? inactive

What classification did "COC(=O)[C@@H]1Cc2cc(O)c(O)cc2C2(CCN(C)CC2)O1" end up with in this test? inactive

What classification did C/C1=C/C2=CC(C)C[C@@H]2C(=O)[C@]2(C)C(=O)CC(C)(C)[C@H]2CC1=O (some centres not stated) end up with in this test? inactive

====

System: SNB-19
assay name: NCI tumour cell line growth inhibition, 48 h
Activity calls are given as the source filed them. Rule as the data show it: active = GI50 up to about 1.1 µM and inactive = higher.
Reported values of GI50 for individual entries

Example compounds with recorded GI50:
{"compound": "COc1cc2nc(-c3ccccc3F)nc(O)c2cc1OC", "GI50": "63.8 µM (inactive)"}
{"compound": "ClCCN(CCCl)c1ccc(CNCCCNCc2ccc(N(CCCl)CCCl)cc2)cc1", "GI50": "1.87 µM (inactive)"}
{"compound": "O=c1c(C(c2cccnc2)c2c(O)oc3cc(O)ccc3c2=O)c(O)oc2cc(O)ccc12", "GI50": "> 100 µM (inactive)"}
{"compound": "CC(=O)OC12c3ccccc3C(c3ccccc31)C1C(=O)N(Nc3ccccc3)C(=O)C12 (stereo not given)", "GI50": "> 100 µM (inactive)"}
{"compound": "C=C[C@]1(O[Si](C)(C)C)C[C@@]2(C(=O)OCC)C(O)C(=O)N3CCc4cc(OC)c(OC)cc4[C@]312 (stereo not given in full)", "GI50": "> 100 µM (inactive)"}
{"compound": "C=C(C(=O)O[C@H]1C(=O)C2=C(C)CCC3C(=C)C(=O)O[C@@H]3C2[C@]1(C)O)C1CC[C@]2(C)CCCC(=C)[C@H]2C1 (stereo not given in full)", "GI50": "13.1 µM (inactive)"}
{"compound": "C/C(O)=C1\\CC2CN3CCc4c([nH]c5ccccc45)C3CC2CC1=O (stereo not given)", "GI50": "> 100 µM (inactive)"}
{"compound": "O=C1CC(O)c2c1csc2Br (stereo not given)", "GI50": "34.2 µM (inactive)"}

Record summary for CC1(C)N(OC2CCCCO2)C(c2ccccc2)C(c2ccccc2)=[N+]1[O-] (stereo not given) : reported GI50 = > 100 µM (inactive)

Record summary for "C=C(CO[Si](C)(C)C(C)(C)C)C(C)=O" : reported GI50 = > 86.1 µM (inactive)

Each recorded value in this set is attributed to ChEMBL document CHEMBL1201862.
